# System: OVCAR-4 ovarian
# method-notes: NCI tumour cell line growth inhibition, 48 h
measurement-label: TGI

Prompt: Using the record for `CC(C)(C)[Si](C)(C)O/N=C\c1cccc(O[Si](C)(C)C(C)(C)C)c1` , state its measured TGI.
Response: 34.2 µM

Prompt: Using the record for `Cn1c(=O)c2[nH]c(CCS)nc2n(C)c1=O` , state its measured TGI.
Response: > 100 µM

----------
# System: T-47D breast
# method-notes: NCI tumour cell line growth inhibition, 48 h
Is TGI at least 50 µM? Then Satisfied. If not, Not satisfied.

{"compound": "COc1ccc(C(=O)c2cc(C)c(OC)c(C)c2)c(OC)c1OC(=O)C(Cl)Cl", "group": "Satisfied"}
{"compound": "NC(=O)/C=C/c1c[nH]c2nccnc12", "group": "Not satisfied"}
{"compound": "N#Cc1n[nH]n(-c2ccccc2)c1=O", "group": "Satisfied"}

Prompt: Has `COc1cc2cc[n+](C)c(Cc3ccc(Oc4cc(Cc5c6cc(OC)c(OC)cc6cc[n+]5C)ccc4OC)cc3)c2cc1OC` a recorded TGI greater than or equal to 50 µM?
Response: Satisfied

Prompt: Has `O=C(/C=C/c1ccc(O)c(O)c1)O[C@H]1CCCC[C@@H]1OC(=O)/C=C/c1ccc(O)c(O)c1` a recorded TGI greater than or equal to 50 µM?
Response: Satisfied

Prompt: Has Cc1nc2sc(C(=O)Nc3cccc(Cl)c3C)c(N)c2cc1C(O)c1ccccc1 (stereo not given) a recorded TGI greater than or equal to 50 µM?
Response: Satisfied

Prompt: Has `CS(=O)(=O)Nc1cccc(-c2ccc3ncnc(Nc4cncc(Cl)c4)c3c2)c1` a recorded TGI greater than or equal to 50 µM?
Response: Not satisfied

Prompt: Has `CN(C)c1cccc2c(S(=O)(=O)NCCCNCCN)cccc12` a recorded TGI greater than or equal to 50 µM?
Response: Satisfied

----------
# System: OVCAR-8 ovarian
# method-notes: NCI tumour cell line growth inhibition, 48 h; in the data active = GI50 below about 0.43 µM; inactive = the rest
Answer with one of the outcomes given here: active, inactive

Past entries and their recorded results:
{"molecule": "COC(=O)C(Br)(C(=O)OC)C(Br)C(Br)C(Br)c1ccccc1 (stereo unspecified)", "target-of-assay": "OVCAR-8 ovarian", "group": "inactive"}
{"molecule": "COc1ccccc1CNC(=O)/C=C/c1ccc(O)c(O)c1", "target-of-assay": "OVCAR-8 ovarian", "group": "inactive"}
{"molecule": "CN1CCN(c2ccc(NC(=O)c3cncnc3Nc3ccc4c(ccn4Cc4cccc(F)c4)c3)cc2)CC1", "target-of-assay": "OVCAR-8 ovarian", "group": "inactive"}
{"molecule": "CC12OC(C(=O)C13CCC3)C1C(=O)c3c(O)ccc(O)c3C(=O)C12 (stereo unspecified)", "target-of-assay": "OVCAR-8 ovarian", "group": "inactive"}
{"molecule": "Cc1cc(O)cc(-c2nn(C)cc2-c2cc(N3CCOCC3)nc(-c3cccnc3)n2)c1", "target-of-assay": "OVCAR-8 ovarian", "group": "inactive"}
{"molecule": "O=C1Nc2cc(-c3ccc(O)cc3)ccc2/C1=C/c1ccc[nH]1", "target-of-assay": "OVCAR-8 ovarian", "group": "inactive"}
{"molecule": "COc1ccc(/C=C\\c2cc(OC)c(OC)c(OC)c2)cc1N/C=C\\C(=O)c1c[nH]c2ccccc12", "target-of-assay": "OVCAR-8 ovarian", "group": "active"}
{"molecule": "NC1=C(/C(N)=N/O)C(c2ccccc2)c2ccc3ccccc3c2O1 (stereo unspecified)", "target-of-assay": "OVCAR-8 ovarian", "group": "inactive"}
{"molecule": "Cc1nc2sc(C(=O)Nc3cccc(Cl)c3C)c(N)c2cc1C(O)c1ccccc1 (stereo unspecified)", "target-of-assay": "OVCAR-8 ovarian", "group": "active"}
{"molecule": "COc1cc(-c2cn(-c3ccc(F)cc3)c(=O)[nH]2)cc(OC)c1OC", "target-of-assay": "OVCAR-8 ovarian", "group": "inactive"}

Attention now turns to another entry.
Prompt: Could you kindly confirm the outcome this assay logged for `COc1cc(NC(=O)c2cc3ccccc3cc2O)c(OC)cc1Cl` ?
Response: inactive

The origin of these recorded values is PubChem BioAssay (NCI).
